Biological target: T1, P-cadherin-ECD1-3-Fc protein (human P-cadherin-Fc) (human, UniProt P22223 108-440)
T1 construct: Construct was expressed with signal peptide and pro-peptide (PACE co-transfected to process the propeptide); not shown: hinge and CH2 and CH3 domains of human IgG1
T1 sequence (P22223 108-440): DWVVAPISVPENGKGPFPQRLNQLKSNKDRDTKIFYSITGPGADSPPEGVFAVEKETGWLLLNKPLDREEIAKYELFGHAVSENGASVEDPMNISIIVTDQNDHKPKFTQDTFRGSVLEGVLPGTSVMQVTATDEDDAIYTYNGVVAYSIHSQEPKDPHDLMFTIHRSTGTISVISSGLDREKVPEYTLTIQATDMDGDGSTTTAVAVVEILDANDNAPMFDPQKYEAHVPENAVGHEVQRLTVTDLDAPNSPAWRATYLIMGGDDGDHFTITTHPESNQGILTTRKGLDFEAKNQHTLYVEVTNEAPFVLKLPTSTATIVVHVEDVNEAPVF
Assay: phage scFv ELISA, coated P-cadherin-ECD1-3-Fc
Reported Endpoint: Human P-cadherin-Fc binding (OD450)

INSERT INTO assay_data (binder, reported_endpoint, observed_result) VALUES
  ('anti-P-cadherin scFv 153 alanine-mutant H3.2-Ala (scFv, V domains shown, scFv on phage) VH: EVQLVQSGAEVKKPGASVKVSCKASGYTFTSYGISWVRQAPGQGLEWMGWISAYNGNTNYAQKLQGRVTMTTDTSTSTAYMELRSLRSDDTAVYYCATIATANAFGIWGQGTMVTVSS VL: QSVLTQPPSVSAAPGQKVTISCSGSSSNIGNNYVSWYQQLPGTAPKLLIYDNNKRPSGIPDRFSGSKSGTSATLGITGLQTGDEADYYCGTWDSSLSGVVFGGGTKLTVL', 'Human P-cadherin-Fc binding (OD450)', 2.22),
  ('anti-P-cadherin scFv 153 alanine-mutant H2.1-Ala (scFv, V domains shown, scFv on phage) VH: EVQLVQSGAEVKKPGASVKVSCKASGYTFTSYGISWVRQAPGQGLEWMGAISAYNGNTNYAQKLQGRVTMTTDTSTSTAYMELRSLRSDDTAVYYCATIDTANAFGIWGQGTMVTVSS VL: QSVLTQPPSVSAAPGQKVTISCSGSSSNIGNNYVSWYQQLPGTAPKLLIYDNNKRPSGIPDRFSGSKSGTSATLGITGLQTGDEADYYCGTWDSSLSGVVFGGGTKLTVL', 'Human P-cadherin-Fc binding (OD450)', 1.37),
  ('anti-P-cadherin scFv 153 alanine-mutant H3.1-Ala (scFv, V domains shown, scFv on phage) VH: EVQLVQSGAEVKKPGASVKVSCKASGYTFTSYGISWVRQAPGQGLEWMGWISAYNGNTNYAQKLQGRVTMTTDTSTSTAYMELRSLRSDDTAVYYCATADTANAFGIWGQGTMVTVSS VL: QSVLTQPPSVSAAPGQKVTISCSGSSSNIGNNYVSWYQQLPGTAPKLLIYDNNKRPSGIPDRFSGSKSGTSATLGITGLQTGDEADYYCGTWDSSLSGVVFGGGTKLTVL', 'Human P-cadherin-Fc binding (OD450)', 0.17);
